# Assay notes: qHTS assay for identifying genotoxic compounds that show differential cytotoxicity against isogenic chicken DT40 cell lines with known DNA damage response pathways - wild type cell line (AID 743012); further: nearly all actives have a fitted effect of over 60% in size
# Experimental setup: DT40 wild type chicken cells viability, CellTiter-Glo, 40 h; series mostly up to 68.4 µM
Inconclusive results are not listed. Activity calls are given as the source filed them. The call rests on the fitted dose curve; in most records, active means well fitted cell-killing curve with a large enough effect in the repeat runs; inconclusive means weak or mixed curves, or effect the other way; inactive means no such curve, though single readings can be large or run the other way.
I would appreciate it if you answered using one of these outcomes: active, inactive

# count of solved cases: 3
# Molecule, Class label
records = [
    ("Cc1ccc(C(=O)O)o1", "inactive"),
    ("CCCCOCCOCCOC(=O)CCCCC(=O)OCCOCCOCCCC", "inactive"),
    ("O=[N+]([O-])c1cccc(Cl)c1", "inactive"),
]

Now turn to the next molecule.
Dear all, I need the recorded test outcome for CCCCC(CC)COC(=O)CCCCCCCC(=O)OCC(CC)CCCC (stereo unspecified) , thank you. inactive
